# Species: Rattus norvegicus
# assayName: Neuroprotective activity against oxygen glucose deprivation/reperfusion-induced Wistar rat cortical brain assessed as concentration required to reduce LDH release by measuring efficacy window
# Assay type: functional
Calls of active or inactive are those of the source. The calls are words filed in the database; no cut-off is given here.
measureName: Efficacy

# count of solved cases: 4
1) CCN(CC)/C(C)=N/C1=Nc2ccc(OC(F)(F)F)cc2CS1 inactive
2) CCCN(CCC)/C(C)=N/C1=Nc2ccccc2CS1 0.1 µM
3) CCCNC(=S)NC1=Nc2ccccc2CS1 inactive
4) CCCN(CCC)/C(C)=N/C1=Nc2ccccc2SC1 10 µM

// Input: `CCCN(CCC)/C(C)=N/C1=Nc2ccc(OC(F)(F)F)cc2CS1` . Output its Efficacy only.
0.1 µM

// Input: `CN/C(C)=N/C1=Nc2ccccc2SC1` . Output its Efficacy only.
100 µM

// Input: `NC1=Nc2ccc(OC(F)(F)F)cc2CS1` . Output its Efficacy only.
inactive

// Input: `CCN(CC)/C(C)=N/C1=Nc2ccccc2CS1` . Output its Efficacy only.
0.1 µM

* * *

So I've got a bunch of compounds here, and I need their viability reduction at 24 h, 10 µM values.
# assayName: Cytotoxicity against human SH-SY5Y cells assessed as cell viability at 10 uM measured after 24 hrs by MTT assay
# Assay type: toxicity, cell-based

// Input: `CCCN(CCC)/C(C)=N/C1=Nc2ccccc2CS1` . Output its viability reduction at 24 h, 10 µM only.
10%

// Input: `CCN(CC)/C(C)=N/C1=Nc2ccccc2CS1` . Output its viability reduction at 24 h, 10 µM only.
10%

* * *

# Species on record: Rattus norvegicus
# assayName: Neuroprotective activity against oxygen glucose deprivation/reperfusion-induced Wistar rat cortical brain assessed as concentration required to reduce LDH release by measuring efficacy window
# Format: functional
Calls of active or inactive are those of the source. The rule behind the calls is not given here.
measureName: Efficacy

1. C/C(=N\C1=Nc2ccccc2SC1)N(C)C inactive
2. C/C(=N\C1=Nc2ccccc2CS1)N(C)C 0.01 µM
3. CN/C(C)=N/C1=Nc2ccccc2CS1 1 µM
4. CCN(CC)/C(C)=N/C1=Nc2ccccc2SC1 inactive
